Listed here are molecules together with their documented ABSOLUTE LYMPHOCYTE.
species on record: Rattus norvegicus; format: toxicity, organism-based, Sprague-Dawley; conditions: in vivo, po, 0 mg/kg, 24 h, vehicle control, tissue Blood, route oral GAVAGE, dose level Control, time 1 day, vehicle 100 % WATER
Description: DrugMatrix - Regimen: Single
# output: bare number, implied unit cells/µL

In [3]: df
Out[3]:
                                   molecule       endpoint_label  result_number
0  COCCc1ccc(OCC(O)CNC(C)C)cc1 (configuration not stated)  ABSOLUTE LYMPHOCYTE           8010

Proceed to the following item.
ABSOLUTE LYMPHOCYTE reported for this molecule `CCOC(=O)N1CCC(=C2c3ccc(Cl)cc3CCc3cccnc32)CC1` : 8010

---

Listed here are molecules together with their documented GLUCOSE.
species on record: Rattus norvegicus; assay: DrugMatrix - Regimen: Daily Repeat; type: toxicity, organism-based, Sprague-Dawley; set-up: regimen Daily Repeat, gender Male, age 6-8 weeks; conditions: in vivo, iv, 0 mg/kg, 120 h, tissue Plasma, dose level Control, time 5 day, vehicle 100 % SALINE
Starred links: 1 amine or outer side, 2 acyl side, 3 side chain; linkers in the order of their positions; H or OH if unused. Positions of bridges follow the written chain, without caps; N, C: chain ends. Non-standard residues stand in square brackets, D forms with d. Residues, ends and D or L forms follow the SMILES beside them. Chains are numbered I, II in the order given. Actinocin(9to1) = Cc1c2oc3c(C)ccc(C(=O)[*:1])c3nc-2c(C(=O)[*:2])c(N)c1=O; NMeV = CN[C@H](C(=O)O)C(C)C; Sar = CNCC(=O)O
# output: bare number, implied unit mg/dL

Example entries and their recorded answers appear below.
molecule	GLUCOSE, mg/dL
CC[C@]1(O)C[C@H]2CN(CCc3c([nH]c4ccccc34)[C@@](C(=O)OC)(c3cc4c(cc3OC)N(C=O)[C@H]3[C@@](O)(C(=O)OC)[C@H](OC(C)=O)[C@]5(CC)C=CCN6CC[C@]43[C@@H]65)C2)C1 [VINCRISTINE]	155
Cc1ccc(N(CC2=NCCN2)c2cccc(O)c2)cc1 [PHENTOLAMINE]	171.17
COc1cc2c3cc1Oc1cc(ccc1O)C[C@@H]1c4c(cc(OC)c(O)c4Oc4ccc(cc4)C[C@@H]3N(C)CC2)CC[N+]1(C)C.[Cl-]	144.67

Proceed to the following item.
GLUCOSE reported for this molecule Cc1c2oc3c(C)ccc(C(=O)N[C@@H]4C(=O)N[C@H](C(C)C)C(=O)N5CCC[C@H]5C(=O)N(C)CC(=O)N(C)[C@@H](C(C)C)C(=O)O[C@@H]4C)c3nc-2c(C(=O)N[C@@H]2C(=O)N[C@H](C(C)C)C(=O)N3CCC[C@H]3C(=O)N(C)CC(=O)N(C)[C@@H](C(C)C)C(=O)O[C@@H]2C)c(N)c1=O [DACTINOMYCIN] (I: T[dV]P[Sar][NMeV] / II: T[dV]P[Sar][NMeV]; ester I:1-I:C, II:1-II:C; linker I:N-II:N via Actinocin(9to1)) : 165

---

Listed here are compounds together with their documented ERYTHROCYTE COUNT.
species on record: Rattus norvegicus; assay: DrugMatrix - Regimen: Daily Repeat; type: toxicity, organism-based, Sprague-Dawley; set-up: regimen Daily Repeat, gender Male, age 6-8 weeks; conditions: in vivo, po, 0 mg/kg, 72 h, tissue Blood, route oral GAVAGE, dose level Control, time 3 day, […]
# output: bare number, implied unit x10E6/uL

>>> print(df.to_string())
                                   compound  result_number
0  Cc1ccc(-c2cc(C(F)(F)F)nn2-c2ccc(S(N)(=O)=O)cc2)cc1 [CELECOXIB]           5.35

ERYTHROCYTE COUNT reported for this compound O=C(O)CCCc1ccc(N(CCCl)CCCl)cc1 [CHLORAMBUCIL] : 5.35

ERYTHROCYTE COUNT reported for this compound CC(C)(Oc1ccc(Cl)cc1)C(=O)O [CLOFIBRIC ACID] : 5.51

ERYTHROCYTE COUNT reported for this compound O=NN(CCCl)C(=O)NC1CCCCC1 [LOMUSTINE] : 5.61

ERYTHROCYTE COUNT reported for this compound OC(Cn1cncn1)(Cn1cncn1)c1ccc(F)cc1F [FLUCONAZOLE] : 5.35

ERYTHROCYTE COUNT reported for this compound CCC(C)n1ncn(-c2ccc(N3CCN(c4ccc(OCC5COC(Cn6cncn6)(c6ccc(Cl)cc6Cl)O5)cc4)CC3)cc2)c1=O (stereo unspecified) [ITRACONAZOLE] : 5.35

ERYTHROCYTE COUNT reported for this compound CCOC(=O)C1=C(COCCN)NC(C)=C(C(=O)OC)C1c1ccccc1Cl (stereo unspecified) [AMLODIPINE] : 5.61

ERYTHROCYTE COUNT reported for this compound C[C@@H]1CN(c2c(F)c(N)c3c(=O)c(C(=O)O)cn(C4CC4)c3c2F)C[C@H](C)N1 [SPARFLOXACIN] : 5.61

ERYTHROCYTE COUNT reported for this compound CC(C)C(=O)Nc1ccc([N+](=O)[O-])c(C(F)(F)F)c1 [FLUTAMIDE] : 5.44

ERYTHROCYTE COUNT reported for this compound Cc1noc(NS(=O)(=O)c2ccc(N)cc2)c1C [SULFISOXAZOLE] : 5.87

ERYTHROCYTE COUNT reported for this compound Cc1oncc1C(=O)Nc1ccc(C(F)(F)F)cc1 [LEFLUNOMIDE] : 5.03
